Entry source: ChEMBL document CHEMBL1125507

Target: Histamine H1 receptor (Cavia porcellus, UniProt P31389)
Sequence (P31389 whole entry): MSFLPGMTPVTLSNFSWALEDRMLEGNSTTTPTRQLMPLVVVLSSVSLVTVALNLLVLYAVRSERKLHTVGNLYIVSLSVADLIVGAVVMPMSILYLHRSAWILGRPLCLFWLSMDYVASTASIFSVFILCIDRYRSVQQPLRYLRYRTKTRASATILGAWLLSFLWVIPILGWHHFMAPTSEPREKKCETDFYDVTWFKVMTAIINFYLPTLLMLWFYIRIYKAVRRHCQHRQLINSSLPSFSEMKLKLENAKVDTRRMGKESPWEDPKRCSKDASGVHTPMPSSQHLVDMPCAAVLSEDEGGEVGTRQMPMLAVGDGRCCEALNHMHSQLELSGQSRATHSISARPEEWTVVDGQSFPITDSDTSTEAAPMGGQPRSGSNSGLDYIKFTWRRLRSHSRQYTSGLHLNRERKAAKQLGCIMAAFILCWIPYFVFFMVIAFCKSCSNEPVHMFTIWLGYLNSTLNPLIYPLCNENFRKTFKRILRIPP
Test: In vitro for histamine H1 receptor antagonist activity against histamine-induced contractions on isolated guinea pig ileum
Assay type: functional, tissue-based
Assay metric: IC50 (µM)

Form field IC50, entry CN(C)CCCN1C(=O)CSC1c1cccc(Br)c1 (stereo not drawn) : 60

(P) CC(C)c1ccc(C2SCC(=O)N2CCCN(C)C)cc1 (stereo not drawn)
(Q) CN(C)CCCN1C(=O)CSC1c1cccc(Cl)c1 (stereo not drawn)
(R) CN(C)CCCN1C(=O)CSC1c1ccc(Cl)cc1 (stereo not drawn)
Incoming: Order by IC50, ascending. // list labels; follow requested order
Outgoing: P, Q, R

(a) Cc1ccc(C2SCC(=O)N2CCCN(C)C)cc1 (stereo not drawn)
(b) COc1cccc(C2SCC(=O)N2CCCN(C)C)c1 (stereo not drawn)
Incoming: Given the two records a and b , choose the one whose IC50 value is lower. State your choice using its label.
Outgoing: a

(a) CN(C)CCCN1C(=O)CSC1c1cccc(F)c1 (stereo not drawn)
(b) CN(C)CCCN1C(=O)CSC1c1ccc(N)cc1 (stereo not drawn)
Incoming: Which value of IC50 is numerically greater: that of a or that of b ? State your choice using its label.
Outgoing: b
